Each entry below carries its reported residual activity.
STUDY_SYSTEM: PBK (human)
TEST_PROTOCOL: radiometric filter-binding kinase assay, Kinase HotSpot
PARTICULARS: compound 0.5 µM; ATP 10 µM
READOUT_NAME: residual activity (%)

COMPOUND	STUDY_SYSTEM	MEASUREMENT_UNITS	ENDPOINT_RESULT
Nc1ncnc2c1c(-c1ccc(Oc3ccccc3)cc1)cn2C1CCCC1	PBK (human)	%	114
O=C(Nc1cccc(Nc2nccc(Nc3cccc(C(F)(F)F)c3)n2)c1)C1CC1	PBK (human)	%	101
CCN(CC)CCNC(=O)c1c(C)[nH]c(/C=C2\C(=O)Nc3ccc(Cl)cc32)c1C	PBK (human)	%	104
O=c1cc(N2CCOCC2)oc2c1ccc1ccccc12	PBK (human)	%	103
O=C1NC(=O)/C(=C/c2ccc3c(c2)OC(F)(F)O3)S1	PBK (human)	%	91.8
Cc1ccc(S(=O)(=O)/C=C/C#N)cc1	PBK (human)	%	83.2
CNc1cc2c(Nc3cccc(Br)c3)ncnc2cn1	PBK (human)	%	102
O=S(=O)(c1cccc2cnccc12)N1CCCNCC1	PBK (human)	%	100
Cc1[nH]c(/C=C2\C(=O)Nc3ccc(S(=O)(=O)N(C)c4cccc(Cl)c4)cc32)c(C)c1C(=O)N1CCN(C)CC1	PBK (human)	%	104
Nc1ncnc2[nH]nc(Nc3ccc(F)cc3)c12	PBK (human)	%	87.6
CCC(=O)Nc1ccc2ncnc(Nc3cccc(Br)c3)c2c1	PBK (human)	%	96.2
CNC(=O)c1cc(Oc2ccc(NC(=O)Nc3ccc(Cl)c(C(F)(F)F)c3)cc2)ccn1	PBK (human)	%	97.5
COc1cc2ncnc(Nc3cccc(Cl)c3)c2cc1OC	PBK (human)	%	70.9
O=C1NC(=O)c2c1c1c3ccccc3n3c1c1c2c2ccccc2n1C1CCC3O1	PBK (human)	%	39.9
c1ccc(-c2n[nH]cc2-c2ccnc3ccccc23)nc1	PBK (human)	%	91.9
CC(=O)c1ccc(N2CCOCC2)cc1O	PBK (human)	%	113
Nc1ccc2ncnc(NCCc3ccc(Oc4ccccc4)cc3)c2c1	PBK (human)	%	98.2
Oc1cccc(-c2nc(N3CCOCC3)c3oc4ncccc4c3n2)c1	PBK (human)	%	88.7
N#C/C(=C(/N)Sc1ccc(N)cc1)c1ccccc1C(F)(F)F	PBK (human)	%	95.3
N#CC(C#N)=C(N)/C(C#N)=C/c1ccc(O)cc1	PBK (human)	%	96.4
CO[C@H]1CC2CC[C@@H](C)[C@@](O)(O2)C(=O)C(=O)N2CCCC[C@H]2C(=O)OC([C@H](C)C[C@@H]2CC[C@@H](O)[C@H](OC)C2)CC(=O)[C@H](C)/C=C(\C)[C@@H](O)[C@@H](OC)C(=O)[C@H](C)C[C@H](C)/C=C/C=C/C=C/1C (stereo partly specified)	PBK (human)	%	103

Where do these numbers come from? They come from the kinase profiling compilation of Christmann-Franck et al. (2016).
